Reference source: patent US20120114652A1

# TESTED_ON: T1, rabbit PAI-1 (rabbit)
# T1 chain: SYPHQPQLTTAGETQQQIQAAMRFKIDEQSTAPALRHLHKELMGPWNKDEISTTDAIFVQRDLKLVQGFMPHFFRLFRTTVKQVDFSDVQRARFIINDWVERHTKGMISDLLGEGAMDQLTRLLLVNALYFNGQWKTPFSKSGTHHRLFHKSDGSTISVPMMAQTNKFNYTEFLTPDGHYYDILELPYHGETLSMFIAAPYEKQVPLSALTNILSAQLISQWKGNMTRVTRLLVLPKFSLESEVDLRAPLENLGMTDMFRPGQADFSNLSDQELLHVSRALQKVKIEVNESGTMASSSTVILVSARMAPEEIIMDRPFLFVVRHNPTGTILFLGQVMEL
# TEST_SUMMARY: competition ELISA (DELFIA), IgG coated, competitor titrated against biotinylated active human PAI-1
Kindly state IC50 ratio rabbit/wt for each of the entries shown.
Answers are plain numbers.

BINDER: Antibody 02, IgG4, not germlined (antibody, V domains shown, whole IgG4; also called Ab 02) VH: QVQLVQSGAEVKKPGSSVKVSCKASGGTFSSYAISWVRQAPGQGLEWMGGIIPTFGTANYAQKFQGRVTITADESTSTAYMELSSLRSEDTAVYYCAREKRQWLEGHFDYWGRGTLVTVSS VL: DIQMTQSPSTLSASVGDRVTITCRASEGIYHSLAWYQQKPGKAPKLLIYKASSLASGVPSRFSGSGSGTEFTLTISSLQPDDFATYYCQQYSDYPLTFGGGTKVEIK
IC50 ratio rabbit/wt: 4.8

# per-item lookup of IC50 ratio rabbit/wt; items listed below
1. Antibody 27, IgG1, not germlined (antibody, V domains shown, whole IgG1; also called Ab 27) VH: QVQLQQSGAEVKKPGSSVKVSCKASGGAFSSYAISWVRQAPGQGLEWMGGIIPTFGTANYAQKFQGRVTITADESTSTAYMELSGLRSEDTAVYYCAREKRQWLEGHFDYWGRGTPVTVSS VL: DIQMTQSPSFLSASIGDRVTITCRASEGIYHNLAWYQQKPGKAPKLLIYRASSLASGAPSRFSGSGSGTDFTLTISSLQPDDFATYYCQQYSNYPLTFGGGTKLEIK
2. Antibody 01, IgG4, not germlined (antibody, V domains shown, whole IgG4; also called Ab 01) VH: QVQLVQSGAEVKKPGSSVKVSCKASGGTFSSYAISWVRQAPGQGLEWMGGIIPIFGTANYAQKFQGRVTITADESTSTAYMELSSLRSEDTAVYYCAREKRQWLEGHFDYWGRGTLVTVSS VL: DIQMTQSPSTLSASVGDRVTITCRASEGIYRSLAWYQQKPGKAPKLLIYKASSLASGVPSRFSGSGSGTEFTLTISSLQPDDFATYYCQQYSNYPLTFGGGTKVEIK
3. Antibody 20, IgG1, not germlined (antibody, V domains shown, whole IgG1; also called Ab 20) VH: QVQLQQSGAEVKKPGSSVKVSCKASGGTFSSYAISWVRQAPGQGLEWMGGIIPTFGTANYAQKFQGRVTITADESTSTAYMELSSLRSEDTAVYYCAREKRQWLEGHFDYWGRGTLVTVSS VL: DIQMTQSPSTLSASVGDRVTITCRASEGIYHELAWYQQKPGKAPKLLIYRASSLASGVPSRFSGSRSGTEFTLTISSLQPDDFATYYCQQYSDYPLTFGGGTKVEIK

Key:
[85, 9, 9.1]
